# System: MS2 coat protein
# Experimental Details: apparent KD of MS2 coat protein; designed switch direction (-1 OFF switch, 1 ON switch): -1; higher = weaker reporter binding
# Test Context: input ligand: none
Record 1.0 whenever apparent KD of MS2 coat protein is at 30 nM or higher; record 0.0 when lower.

Query Sequence	Group
AUUUUAUAUGAAGGAUAUACUUAACAUGAGGAUCACCCAUGUGGUGUUGUGAGUGAGUGAGUUUAGUAGAAGGUCAAUUAUUUU [JMF's solution 32] (Eterna round: R96, puzzle: Exclusion NG 2)	1.0
ACAUGAGGAUCACCCAUGUUCGGCUGGUCCGUUUCGGCUGUCGAGGAUAUAGUUCGGUGUCCGCGCUAGAAGGCGGGAGCUGGC [Aenatbe mod 64] (Eterna round: R96, puzzle: Exclusion NG 3)	1.0
ACGCGUGGCUAGGAUAUCGAGGAAUCUAGCCAGCGAGAAGGAGCCACAUGAGGAUCACCCAUGUGGUGAUCCUC [jl-ex6-4.65 ViennaUCT mod] (Eterna round: R97, puzzle: Exclusion 6)	0.0

QUERY: # bool: apparent KD of MS2 coat protein of UGCCGUAGAGGAUAUACGUAGAAAUAGAUUCAUGUAAAACUACAUGAGGAUCACCCAUGUAGAAGGCUAUGGCU [JL-ex2-4.32 Eli mod] (Eterna round: R97, puzzle: Exclusion 2) >= 30 nM
RESULT: 0.0

QUERY: Reported apparent KD of MS2 coat protein at or above 30 nM? GCGGACAAGAUCGCGAGAUCAGAGACAUGAGGAUCACCCAUGUAGGAUAUCGAUUCGAAACGAAUCGAGAAGGGCAUAGUCCGC [JL denovo 5] (Eterna round: R96, puzzle: Exclusion NG 3)
RESULT: 0.0

QUERY: Is apparent KD of MS2 coat protein for GGUAGAGUGGUAGGAUAUCCGUCUGUUUCAGUCGGAGAAGGACCACAGUCACUGGGUCCAUGUUUCAUGGAGACCUGAUCUACC [pwkr exNG1 F6.9] (Eterna round: R96, puzzle: Exclusion NG 1) at or above 30 nM?
RESULT: 1.0

QUERY: Threshold query (apparent KD of MS2 coat protein >= 30 nM) on GUCUUACAUGAGGAUCACCCAUGUGAGGAUAUGAGUGGUGCUGCUAGGUAGUAUAGACUCAGAAGGCGCAUGAU [Malcxlusion 3 - Jieux - Exclusion 1] (Eterna round: R97, puzzle: Exclusion 1)
RESULT: 0.0

QUERY: Decide: is the reported value of apparent KD of MS2 coat protein for CAGUCAGCGCAGGAUAUCUGCUCGGUGACAGACGGAGAAGGGUGCACAUGAGGAUCACCCAUGUGAAUCUCUAA [Eternabot (Original) Solution 3] (Eterna round: R97, puzzle: Exclusion 6) equal to or greater than 30 nM?
RESULT: 0.0

QUERY: Given the entry UAUCGCAAGCGAAGAUCCCACAUGAGGAUCACCCAUGUGCUCGUCUUAUAAGGUACUGUGACGAUAGUCACGGUACC [Mat - Sensor, turn-off var - Eli Mod - D77] (Eterna round: R97, puzzle: Sensor, turn-off variant 1) , answer whether its apparent KD of MS2 coat protein meets or surpasses 30 nM.
RESULT: 0.0

* * *

# Tested on: K4 kissing-loop RNA reporter;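 also: bound reporter read as fluorescence of individual clusters on recovered sequencing chips by microscopy, with normalized cluster intensities fitted with a binding model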
# Experimental Details: apparent KD of K4 kissing-loop reporter; higher = weaker reporter binding
# Test Context: Eterna round: R107; input ligand: FMN 200 uM
# Lookup of reported apparent KD of K4 kissing-loop reporter keyed by entry
The response must be a number in µM with no trailing unit.

Solved entries (count: 5):
Query Sequence	Display Unit	apparent KD of K4 kissing-loop reporter
AAGCAGUCACUCGAACCCAUCGAAGAUGGGCGAGGACCGGUACGGCCGCCACUCGGAGUGAUGUUCCGAAGACUGCAAAAUAAAA	µM	0.329
CGGCUCUAUCCUAGUAUUAAGAGGGAGUUGCGAGGACCGGUACGGCCGCCACUCGAAGUAGUUUGGCCAGUGAUGUUGGUCUUAC [Qubeatonza]	µM	0.223
AUUGCGGCCGUUCUAUCACCAGGCGGAGAUACCAGAUGCCAGCAGAUCCCUUGGCAGCUCUGCACGAGAUCCAGUGAUGUUGGGU [theeternabot_exclusion_KL_Theo_A_9]	µM	0.319
UUUUUCCCGCAGGAUACCAGCAACCAAACGUCAUGCGAAGUGAUGUUUCGCUUACGGUAGUGCCCUUGGCAGCCUUCGGUAGGGU [thingy]	µM	0.196
UAAAAUAAAUAAUAGAGAUAAUUACUCGAAGGAGCGACGAAUUCGUCAGGUAGGUCGCGAGUGAUGUUCGCAAAUAUUAUCUCAU [AK3 Exc Arginine A]	µM	0.212

Here's the next entry for you.
Just so you know, measured apparent KD of K4 kissing-loop reporter for AUUUUUUACAGAAGGAGCGUGUUAUAAUAAUCAUAUUGCUUAGCGAGUGAUGUUCGCUUUACACAGGUAGGUCGCUGUUUAUUUA [JR_Nu_ExcArginiB_Sub029] came out at 0.167
